Tested on: U2OS
protocol-details: Multiplex assay against U2OS
Assay type: toxicity, cell-based
particulars: human, 12 h, 10 µM, compound concentration 10 uM, replicate 2
Entries annotated with measured Population Normal (%)

| smiles-input | Population Normal (%) |
| --- | --- |
| NC(=O)c1cccc(-c2cc(Nc3ccc(OC(F)(F)F)cc3)ncn2)c1 | 90 |
| O=C(Nc1ccc(-n2nc(-c3cccnc3)cc2C(F)(F)F)cn1)c1ccc(-c2ccccc2)c(F)c1 | 93 |
| CCCS(=O)(=O)c1nc(NC2CC2)cc(-c2ccc3c(ccn3C3CC(C)(C)NC(C)(C)C3)c2)n1 | 92 |
| O=C(Nc1ccc(Cl)cc1)Nc1cccc(-c2cccc(N3CCCC3)n2)c1 | 92 |
| C=CCn1c(=O)c2cnc(Nc3ccc(N4CCN(C)CC4)cc3)nc2n1-c1cccc(C(C)(C)O)n1 | 71 |
| CCn1cc(-c2ccnc3[nH]c(-c4cccc(CN(C)C)c4)cc23)c(-c2ccc(NC(=O)N(C)C)cc2)n1 | 83 |
| CN1CCN(C(=O)C(C)(C)c2ccc(C(=O)Nc3cn4cc(-c5cc(C(C)(C)C)cc(C(C)(C)C)c5)ccc4n3)cc2)CC1 | 84 |
| O=C(Nc1cccnn1)N1CCC(=Cc2cccc(Oc3ccc(C(F)(F)F)cn3)c2)CC1 | 84 |

###

System: U2OS
protocol-details: Multiplex assay against U2OS
Type: toxicity, cell-based
particulars: human, 24 h, 1 µM, compound concentration 1 uM, replicate 2
quantity-name: Population Hoechst High Intensity Objects (%)

| smiles-input | numeric-readout |
| --- | --- |
| Cn1nc(C(F)(F)F)cc1-c1cnc(N2CCc3cc(S(=O)(=O)Nc4c(F)cc(Cl)cc4F)cc(N4CCCC4=O)c32)nc1 | 5 |
| CCN1CCN(Cc2ccc(Nc3ncc(F)c(-c4cc(F)c5nc(C)n(C(C)C)c5c4)n3)nc2)CC1.CS(=O)(=O)O | 10 |
| COc1ccc(S(=O)(=O)N(CCO)c2ccccc2CN(C)C/C=C/c2ccc(Cl)cc2)cc1.O=P(O)(O)O | 8 |
| COc1cc(N2CCN(C)CC2)ccc1Nc1ncc2c(n1)N(C)c1ccccc1C(=O)N2C | 6 |

###

Entries annotated with measured Population Fragmented Nuclei (%)
Tested on: Fibroblast
protocol-details: Multiplex assay against human fibroblast
Assay type: toxicity, cell-based
particulars: 24 h, 10 µM, compound concentration 10 uM, replicate 2
quantity-name: Population Fragmented Nuclei (%)

| smiles-input | tested-system | quantity-name | numeric-readout |
| --- | --- | --- | --- |
| O=C(Nc1ccc(-n2nc(-c3cccnc3)cc2C(F)(F)F)cn1)c1ccc(-c2ccccc2)c(F)c1 | Fibroblast | Population Fragmented Nuclei (%) | 11 |
| O=C(Nc1cccnn1)N1CCC(=Cc2cccc(Oc3ccc(C(F)(F)F)cn3)c2)CC1 | Fibroblast | Population Fragmented Nuclei (%) | 51 |
| COc1ccc(S(=O)(=O)N(CCO)c2ccccc2CN(C)C/C=C/c2ccc(Cl)cc2)cc1.O=P(O)(O)O | Fibroblast | Population Fragmented Nuclei (%) | 71 |
| Cn1nc(C(F)(F)F)cc1-c1cnc(N2CCc3cc(S(=O)(=O)Nc4c(F)cc(Cl)cc4F)cc(N4CCCC4=O)c32)nc1 | Fibroblast | Population Fragmented Nuclei (%) | 52 |
| CN1CCN(C(=O)C(C)(C)c2ccc(C(=O)Nc3cn4cc(-c5cc(C(C)(C)C)cc(C(C)(C)C)c5)ccc4n3)cc2)CC1 | Fibroblast | Population Fragmented Nuclei (%) | 55 |
| Cl.O=c1c2cccn2c2ccccc2n1CCCN1CCC(c2ccc(Cl)cc2)CC1 | Fibroblast | Population Fragmented Nuclei (%) | 14 |
| CCn1cc(-c2ccnc3[nH]c(-c4cccc(CN(C)C)c4)cc23)c(-c2ccc(NC(=O)N(C)C)cc2)n1 | Fibroblast | Population Fragmented Nuclei (%) | 45 |
| CCCn1c(=O)c2[nH]c(-c3cnn(Cc4cccc(C(F)(F)F)c4)c3)nc2n(CC)c1=O | Fibroblast | Population Fragmented Nuclei (%) | 17 |

###

Tested on: HEK-293T
protocol-details: Multiplex assay against HEK293T
Type: toxicity, cell-based
particulars: human, 12 h, 10 µM, compound concentration 10 uM, replicate 1
Entries annotated with measured Population Fragmented Nuclei (%)

| compound | Population Fragmented Nuclei (%) |
| --- | --- |
| COc1cc(N2CCN(C)CC2)ccc1Nc1ncc2c(n1)N(C)c1ccccc1C(=O)N2C | 12% |
| C=CCn1c(=O)c2cnc(Nc3ccc(N4CCN(C)CC4)cc3)nc2n1-c1cccc(C(C)(C)O)n1 | 20% |
| COc1cccc2cc(-c3nc([C@H]4CC[C@H](C(=O)O)CC4)n4ncnc(N)c34)[nH]c12 | 32% |
| CCOc1cc(C(=O)N2CCC(N3CCN(C)CC3)CC2)ccc1Nc1ncc2c(n1)N(C1CCCC1)c1ccccc1C(=O)N2C | 8% |
| CN1CCC(=C2c3ccccc3CC(=O)c3sccc32)CC1.O=C(O)/C=C/C(=O)O [KETOTIFEN FUMARATE] | 11% |
| O=C1N/C(=N/c2ccccc2F)S/C1=C\c1ccc(C(=O)O)cc1 | 10% |
| O=C(Nc1ccc(Cl)cc1)Nc1cccc(-c2cccc(N3CCCC3)n2)c1 | 31% |
| CCOC(=O)c1c(C)[nH]c2ccc3c(c12)CN1CCc2cc(OC)ccc2C1O3 (stereo not drawn) | 12% |

###

Tested on: HEK-293T
protocol-details: Multiplex assay against HEK293T
Format: toxicity, cell-based
particulars: human, 12 h, 10 µM, compound concentration 10 uM, replicate 1
Entries annotated with measured Population Membrane Permeable-Phenotype (%)
quantity-name: Population Membrane Permeable-Phenotype (%)

| molecule | tested-system | numeric-readout |
| --- | --- | --- |
| COc1ccc(-c2ccc3c(N4CCOCC4)nc(N4C[C@@H](C)O[C@@H](C)C4)nc3n2)cc1CO | HEK-293T | 11 |
| CN1CCN(C(=O)C(C)(C)c2ccc(C(=O)Nc3cn4cc(-c5cc(C(C)(C)C)cc(C(C)(C)C)c5)ccc4n3)cc2)CC1 | HEK-293T | 11 |
| CCc1cccc(CC)c1NC(=O)c1nn(C)c2c1CCc1cnc(Nc3ccc(N4CCN(C)CC4)cc3OC)nc1-2 | HEK-293T | 13 |
| COc1cc2ncnc(Nc3ccc(F)c(Cl)c3)c2cc1NC(=O)/C=C/CN1CCCCC1 [DACOMITINIB ANHYDROUS] | HEK-293T | 4 |

###

Entries annotated with measured Population Mitochondria Different-Phenotype (%)
Tested on: U2OS
protocol-details: Multiplex assay against U2OS
Assay type: toxicity, cell-based
particulars: human, 24 h, 1 µM, compound concentration 1 uM, replicate 2
quantity-name: Population Mitochondria Different-Phenotype (%)

| compound | tested-system | result |
| --- | --- | --- |
| CCc1cccc(CC)c1NC(=O)c1nn(C)c2c1CCc1cnc(Nc3ccc(C(=O)NC4CCN(C)CC4)cc3OC(F)(F)F)nc1-2 | U2OS | 12% |
| O=C(Nc1ccc(-c2ccnc(Nc3ccc(N4CCOCC4)cc3)n2)cc1)[C@@H]1CCCN1 | U2OS | 19% |
| Cc1cn(-c2cc(NC(=O)c3ccc(C)c(Nc4nccc(-c5cccnc5)n4)c3)cc(C(F)(F)F)c2)cn1 [NILOTINIB] | U2OS | 20% |
| O=C(Nc1ccc(Cl)cc1)Nc1cccc(-c2cccc(N3CCCC3)n2)c1 | U2OS | 3% |
| CCN1CCN(Cc2ccc(Nc3ncc(F)c(-c4cc(F)c5nc(C)n(C(C)C)c5c4)n3)nc2)CC1.CS(=O)(=O)O | U2OS | 85% |
| Cl.O=c1c2cccn2c2ccccc2n1CCCN1CCC(c2ccc(Cl)cc2)CC1 | U2OS | 38% |
| CCCn1c(=O)c2[nH]c(-c3cnn(Cc4cccc(C(F)(F)F)c4)c3)nc2n(CC)c1=O [GS 6201] | U2OS | 10% |
| CNC(=O)c1ccc(Nc2nc(OC3CCCC3)c3c(-c4ccc5nc(C)oc5c4)c[nH]c3n2)c(OC)c1 | U2OS | 73% |

###

System: HEK-293T
protocol-details: Multiplex assay against HEK293T
Type: toxicity, cell-based
particulars: human, 48 h, 1 µM, compound concentration 1 uM, replicate 1
Entries annotated with measured Total Cell Count

| molecule | Total Cell Count |
| --- | --- |
| Cc1cn(-c2cc(NC(=O)c3ccc(C)c(Nc4nccc(-c5cccnc5)n4)c3)cc(C(F)(F)F)c2)cn1 | 244 |
| O=C1N/C(=N/c2ccccc2F)S/C1=C\c1ccc(C(=O)O)cc1 | 254 |
| Cc1cc(C)c(S(=O)(=O)N(Cc2ccc(-c3cccc(S(C)(=O)=O)c3)cc2)Cc2ccc(C(F)(F)F)o2)c(C)c1 | 387 |
| CCOC(=O)c1c(C)[nH]c2ccc3c(c12)CN1CCc2cc(OC)ccc2C1O3 (stereo not drawn) | 354 |
| CCN1CCN(Cc2ccc(Nc3ncc(F)c(-c4cc(F)c5nc(C)n(C(C)C)c5c4)n3)nc2)CC1.CS(=O)(=O)O | 254 |
| O=C1NC(=O)C(c2cnc3ccccn23)=C1c1cn2c3c(cc(F)cc13)CN(C(=O)N1CCCCC1)CC2 | 230 |
| CN1C2CCC1CC(OC(c1ccc(F)cc1)c1ccc(F)cc1)C2.Cl (stereo not drawn) | 329 |
| C=C1/C(=C\C=C2/CCC[C@]3(C)[C@@H]([C@H](C)/C=C/[C@H](C)C(C)C)CC[C@@H]23)C[C@@H](O)C[C@@H]1O | 180 |
